# System: HEK-293T
# Experimental Details: Multiplex assay against HEK293T
# Type: toxicity, cell-based
# Run Parameters: human, 12 h, 10 µM, compound concentration 10 uM, replicate 1
# reported Population Tubulin-Different-Phenotype (%); entries follow
Express it in %; write the number only.

Lookup: Entry CN1CCN2c3ncccc3Cc3ccccc3C2C1 (configuration not stated) [MIRTAZAPINE] : reported Population Tubulin-Different-Phenotype (%) = ?
Found: 43

Lookup: # Population Tubulin-Different-Phenotype (%) lookup, item Cc1ccc(/C(=C\CN2CCCC2)c2ccccn2)cc1 [TRIPROLIDINE]
Found: 53

Lookup: What measured Population Tubulin-Different-Phenotype (%) goes with Cc1ccccc1C(=O)Nc1ccc(C(=O)N2CCCC(N(C)C)c3ccccc32)cc1.Cl (configuration not stated) ?
Found: 60

Lookup: Name the reported Population Tubulin-Different-Phenotype (%) value associated with the compound `CN(C)c1ccnc2sc3c(=O)n(N4CCCCCC4)cnc3c12`
Found: 79

Lookup: Which Population Tubulin-Different-Phenotype (%) is reported for this compound? C[C@H]1[C@H]2CC[C@H]3[C@@H]4CC=C5C[C@@H](N(C)C)CC[C@]5(C)[C@H]4CC[C@]23CN1C [CONESSINE]
Found: 38

More entries:
Lookup: For C[C@@H]1C[C@H]2[C@@H]3CCC4=CC(=O)C=C[C@]4(C)[C@@]3(F)[C@@H](O)C[C@]2(C)[C@@]1(O)C(=O)CO [DEXAMETHASONE] , what is its reported Population Tubulin-Different-Phenotype (%)?
Found: 33

Lookup: Would you kindly share the measured Population Tubulin-Different-Phenotype (%) for `CSCC[C@H](NC=O)C(=O)N[C@@H](CC(C)C)C(=O)N[C@@H](Cc1ccccc1)C(=O)O` ?
Found: 37

Lookup: Need Population Tubulin-Different-Phenotype (%), item O=C(O)Cc1ccccc1Nc1c(Cl)cccc1Cl [DICLOFENAC]
Found: 35

Lookup: Could you share which Population Tubulin-Different-Phenotype (%) value was measured for CCCC(CCC)C(=O)O [VALPROIC ACID] ?
Found: 26
